Reference source for all entries: patent US20060069132A1

Test system: redroot pigweed
Assay: Test A pre-/postemergence herbicide test
Type: in vivo, Amaranthus retroflexus
Details: preemergence, 500 g ai/ha; visual injury, 0 to 100 scale (0 no effect, 100 complete control)
Would you mind telling me the reported Pigweed plant response rating of each entry?

The recorded Pigweed plant response rating for entry CCn1nc(C(C)(C)C)cc1C(=O)Nc1cccc(C(=O)N2CC=CC2)c1 equals 85

Entry CCOC(=O)c1ccc(F)c(NC(=O)c2nc(C(C)(C)C)nn2CC)c1 ; Pigweed plant response rating = 0

# Pigweed plant response rating (compound: CCc1nc(C(C)(C)C)sc1C(=O)Nc1cccc(C(=O)NCC2CC2)n1 ) is 30

Lookup result for Cc1nc(C(C)(C)C)sc1C(=O)Nc1cccc(C(=O)NCC(F)(F)F)c1 ; measured Pigweed plant response rating: 40

Pigweed plant response rating measured on CCn1nc(C(C)(C)C)cc1C(=O)Nc1nc(OC)cc(SCF)n1 = 0

Item: COC(=O)c1cccc(NC(=O)c2cc(C(C)(C)C)nn2C)n1 | Pigweed plant response rating: 0

Sure, the documented Pigweed plant response rating for CCn1nc(C(C)(C)C)cc1C(=O)Nc1cncc(C(=O)N(C)C)n1 is 100

The recorded Pigweed plant response rating for CCNC(=O)c1ccnc(NC(=O)c2cn(C(C)(C)C)nc2CC)c1 is 65
